Source of measurements: the supplement of paper PMC8882468

# maps each entry to its CTG-3D luminescence at 96 h
System: HCI-012 (organoid from a breast cancer xenograft)
Experiment: CTG-3D luminescence at 96 h relative to day-0 seeding control (ratio to day 0); higher = more growth / less cytotoxicity; PDxO 3D drug screen, 96 h, CTG-3D normalised to day-0 seeding control.
Settings: 625 fM; days in culture: 162

In the examples that follow, each entry is paired with its recorded CTG-3D luminescence at 96 h.
molecule | systemTested | observedProperty | dataValue
C[C@@H]1COCCN1c1cc(C2([S@](C)(=N)=O)CC2)nc(-c2cc[nH]c3nccc2-3)n1 | HCI-012 | CTG-3D luminescence at 96 h | 3.18
CC(=O)O[C@H]1C(=O)[C@@]2(C)[C@H]([C@H](OC(=O)c3ccccc3)[C@]3(O)C[C@H](OC(=O)[C@H](O)[C@@H](NC(=O)c4ccccc4)c4ccccc4)C(C)=C1C3(C)C)[C@]1(OC(C)=O)CO[C@@H]1C[C@@H]2O | HCI-012 | CTG-3D luminescence at 96 h | 2.67

In the following, a different molecule is considered.
Data request: Please report the measured CTG-3D luminescence at 96 h for C[C@]12CC[C@@H]3c4ccc(O)cc4C[C@@H](CCCCCCCCC[S+]([O-])CCCC(F)(F)C(F)(F)F)[C@H]3[C@@H]1CC[C@@H]2O (stereo partly drawn)
Data returned: 2.92

* * *

Reported CTG-3D luminescence at 96 h values follow for various compounds
Test system: HCI-027 (organoid from a triple-negative breast cancer xenograft)
Experiment: CTG-3D luminescence at 96 h relative to day-0 seeding control (ratio to day 0); higher = more growth / less cytotoxicity; PDxO 3D drug screen, 96 h, CTG-3D normalised to day-0 seeding control.
Settings: 0.005 µM; days in culture: 194
Just the number, please, no unit after it.

Reference set, count: 5
compound | systemTested | observedProperty | dataValue
CS(=O)(=O)c1ccc(C(=O)Nc2ccc(Cl)c(-c3ccccn3)c2)c(Cl)c1 [vismodegib] | HCI-027 | CTG-3D luminescence at 96 h | 2.35
CC[C@H](NC(=O)[C@H](C)NC)C(=O)N1C[C@@H](O)C[C@H]1Cc1c(-c2[nH]c3cc(F)ccc3c2C[C@@H]2C[C@H](O)CN2C(=O)[C@H](CC)NC(=O)[C@H](C)NC)[nH]c2cc(F)ccc12 [birinapant] | HCI-027 | CTG-3D luminescence at 96 h | 0.983
C[C@@H]1COCCN1c1cc(C2([S@](C)(=N)=O)CC2)nc(-c2cc[nH]c3nccc2-3)n1 [ceralasertib] | HCI-027 | CTG-3D luminescence at 96 h | 1.32
CC(=O)O[C@H]1C(=O)[C@@]2(C)[C@H]([C@H](OC(=O)c3ccccc3)[C@]3(O)C[C@H](OC(=O)[C@H](O)[C@@H](NC(=O)c4ccccc4)c4ccccc4)C(C)=C1C3(C)C)[C@]1(OC(C)=O)CO[C@@H]1C[C@@H]2O [paclitaxel] | HCI-027 | CTG-3D luminescence at 96 h | 0.751
CCN(c1cc(C#CCN2CCOCC2)cc(C(=O)NCc2c(C)cc(C)[nH]c2=O)c1C)[C@H]1CC[C@H](N(C)CCOC)CC1 | HCI-027 | CTG-3D luminescence at 96 h | 2.09

Here's the next entry for you.
Data request: Annotate the compound O=C(O)C1(C(=O)O)CCC1.[NH2-].[NH2-].[Pt+2] [carboplatin] with its measured CTG-3D luminescence at 96 h.
Data returned: 1.4

* * *

Test system: HCI-003.E2 (organoid from an ER-positive breast cancer xenograft)
Test: CTG-3D luminescence at 96 h relative to day-0 seeding control (ratio to day 0); higher = more growth / less cytotoxicity; PDxO 3D drug screen, 96 h, CTG-3D normalised to day-0 seeding control.
Settings: 10 µM
Label satisfied when CTG-3D luminescence at 96 h is at or above 0.8; otherwise label not satisfied.

Here's what some known entries look like.
molSmiles | classAssignment
C/C=C1\NC(=O)[C@H]2CSSCC/C=C/[C@H](CC(=O)N[C@H](C(C)C)C(=O)N2)OC(=O)[C@H](C(C)C)NC1=O | not satisfied
Cc1cc(Nc2ncc(Cl)c(Nc3ccccc3S(=O)(=O)C(C)C)n2)c(OC(C)C)cc1C1CCNCC1 | not satisfied
O=C(c1ccc(F)c(F)c1Nc1ccc(I)cc1F)N1CC(O)([C@@H]2CCCCN2)C1 | satisfied
O=C(O)C1(C(=O)O)CCC1.[NH2-].[NH2-].[Pt+2] | satisfied

Data request: # check: CTG-3D luminescence at 96 h of NC1(C(=O)N[C@@H](CCO)c2ccc(Cl)cc2)CCN(c2nc[nH]c3nccc2-3)CC1 is greater than or equal to 0.8
Data returned: not satisfied

Data request: Test whether the compound CCN(c1cc(C#CCN2CCOCC2)cc(C(=O)NCc2c(C)cc(C)[nH]c2=O)c1C)[C@H]1CC[C@H](N(C)CCOC)CC1 records CTG-3D luminescence at 96 h of 0.8 or higher.
Data returned: satisfied

Data request: Does CC1(C)CCC(c2ccc(Cl)cc2)=C(CN2CCN(c3ccc(C(=O)NS(=O)(=O)c4ccc(N[C@H](CCN5CCOCC5)CSc5ccccc5)c(S(=O)(=O)C(F)(F)F)c4)cc3)CC2)C1 have a reported CTG-3D luminescence at 96 h of at least 0.8?
Data returned: satisfied

* * *

System: HCI-001 (organoid from a triple-negative breast cancer xenograft)
Test: CTG-3D luminescence at 96 h relative to day-0 seeding control (ratio to day 0); higher = more growth / less cytotoxicity; PDxO 3D drug screen, 96 h, CTG-3D normalised to day-0 seeding control.
Details: 0.005 µM; days in culture: 269
observedProperty: CTG-3D luminescence at 96 h
Form rule: numeric answer, no unit written next to it.

Use the examples below as a reference point.
compound | dataValue
NC1(C(=O)N[C@@H](CCO)c2ccc(Cl)cc2)CCN(c2nc[nH]c3nccc2-3)CC1 [capivasertib] | 1.82
CC1(C)CCC(c2ccc(Cl)cc2)=C(CN2CCN(c3ccc(C(=O)NS(=O)(=O)c4ccc(N[C@H](CCN5CCOCC5)CSc5ccccc5)c(S(=O)(=O)C(F)(F)F)c4)cc3)CC2)C1 [navitoclax] | 1.37

Data request: Dear colleague, please send me the reported CTG-3D luminescence at 96 h for CN(Cc1cnc2nc(N)nc(N)c2n1)c1ccc(C(=O)N[C@@H](CCC(=O)O)C(=O)O)cc1 [methotrexate] when you can.
Data returned: 1.53

Data request: Please supply the value of reported CTG-3D luminescence at 96 h for the item C=CCn1c(=O)c2cnc(Nc3ccc(N4CCN(C)CC4)cc3)nc2n1-c1cccc(C(C)(C)O)n1 [adavosertib]
Data returned: 1.59

Data request: Give CTG-3D luminescence at 96 h for CCN1CCN(Cc2ccc(Nc3ncc(F)c(-c4cc(F)c5nc(C)n(C(C)C)c5c4)n3)nc2)CC1 [abemaciclib]
Data returned: 1.69

Data request: Supply measured CTG-3D luminescence at 96 h of CS(=O)(=O)c1ccc(C(=O)Nc2ccc(Cl)c(-c3ccccn3)c2)c(Cl)c1 [vismodegib] in your reply.
Data returned: 1.55

Data request: Please look at this compound and report its CTG-3D luminescence at 96 h: CC[C@H](NC(=O)[C@H](C)NC)C(=O)N1C[C@@H](O)C[C@H]1Cc1c(-c2[nH]c3cc(F)ccc3c2C[C@@H]2C[C@H](O)CN2C(=O)[C@H](CC)NC(=O)[C@H](C)NC)[nH]c2cc(F)ccc12 [birinapant]
Data returned: 1.54

* * *

// reported CTG-3D luminescence at 96 h per item
Test system: HCI-015 (organoid from a triple-negative breast cancer xenograft)
Experiment: CTG-3D luminescence at 96 h relative to day-0 seeding control (ratio to day 0); higher = more growth / less cytotoxicity; PDxO 3D drug screen, 96 h, CTG-3D normalised to day-0 seeding control.
Conditions: 0.005 µM; days in culture: 191

Worked cases, answers included:
compound | dataValue
C[C@@H]1COCCN1c1cc(C2([S@](C)(=N)=O)CC2)nc(-c2cc[nH]c3nccc2-3)n1 | 1.19
C[C@H](NC(=O)CCC(F)(F)F)C(=O)N[C@@H]1C(=O)N(CCO)c2ncccc2-c2ccccc21 | 0.914

Proceed to the following item.
Data request: Read the entry CN(Cc1cnc2nc(N)nc(N)c2n1)c1ccc(C(=O)N[C@@H](CCC(=O)O)C(=O)O)cc1 [methotrexate] and write its reported CTG-3D luminescence at 96 h.
Data returned: 1.62

* * *

Test system: HCI-008 (organoid from a HER2-enriched breast cancer xenograft)
Assay: CTG-3D luminescence at 96 h relative to day-0 seeding control (ratio to day 0); higher = more growth / less cytotoxicity; PDxO 3D drug screen, 96 h, CTG-3D normalised to day-0 seeding control.
Conditions: 1 µM; days in culture: 228
Measured CTG-3D luminescence at 96 h accompanies every entry in the list below.
Give your answer as a number; write no unit.

Some compounds with known CTG-3D luminescence at 96 h results, for comparison:
molSmiles | CTG-3D luminescence at 96 h
CC(C)(C(=O)NCC(F)(F)C(F)(F)F)C(=O)N[C@@H]1C(=O)Nc2ccccc2-c2ccccc21 | 1.17
Cc1cc(Nc2ncc(Cl)c(Nc3ccccc3S(=O)(=O)C(C)C)n2)c(OC(C)C)cc1C1CCNCC1 | 1.15
CNC(=O)c1cccc(-c2ccc3c(N4CCOC[C@@H]4C)nc(N4CCOC[C@@H]4C)nc3n2)c1 | 0.71

Shift focus to the following entry.
Data request: State CTG-3D luminescence at 96 h on HCI-008. Entry: Nc1ccn([C@@H]2O[C@H](CO)[C@@H](O)C2(F)F)c(=O)n1
Data returned: 0.596
